STUDY_TARGET: NMDA receptor (GRIN1/GRIN2A) (Homo sapiens, UniProt Q05586+Q12879)
Sequence (Q12879 23-1464, other chains not shown): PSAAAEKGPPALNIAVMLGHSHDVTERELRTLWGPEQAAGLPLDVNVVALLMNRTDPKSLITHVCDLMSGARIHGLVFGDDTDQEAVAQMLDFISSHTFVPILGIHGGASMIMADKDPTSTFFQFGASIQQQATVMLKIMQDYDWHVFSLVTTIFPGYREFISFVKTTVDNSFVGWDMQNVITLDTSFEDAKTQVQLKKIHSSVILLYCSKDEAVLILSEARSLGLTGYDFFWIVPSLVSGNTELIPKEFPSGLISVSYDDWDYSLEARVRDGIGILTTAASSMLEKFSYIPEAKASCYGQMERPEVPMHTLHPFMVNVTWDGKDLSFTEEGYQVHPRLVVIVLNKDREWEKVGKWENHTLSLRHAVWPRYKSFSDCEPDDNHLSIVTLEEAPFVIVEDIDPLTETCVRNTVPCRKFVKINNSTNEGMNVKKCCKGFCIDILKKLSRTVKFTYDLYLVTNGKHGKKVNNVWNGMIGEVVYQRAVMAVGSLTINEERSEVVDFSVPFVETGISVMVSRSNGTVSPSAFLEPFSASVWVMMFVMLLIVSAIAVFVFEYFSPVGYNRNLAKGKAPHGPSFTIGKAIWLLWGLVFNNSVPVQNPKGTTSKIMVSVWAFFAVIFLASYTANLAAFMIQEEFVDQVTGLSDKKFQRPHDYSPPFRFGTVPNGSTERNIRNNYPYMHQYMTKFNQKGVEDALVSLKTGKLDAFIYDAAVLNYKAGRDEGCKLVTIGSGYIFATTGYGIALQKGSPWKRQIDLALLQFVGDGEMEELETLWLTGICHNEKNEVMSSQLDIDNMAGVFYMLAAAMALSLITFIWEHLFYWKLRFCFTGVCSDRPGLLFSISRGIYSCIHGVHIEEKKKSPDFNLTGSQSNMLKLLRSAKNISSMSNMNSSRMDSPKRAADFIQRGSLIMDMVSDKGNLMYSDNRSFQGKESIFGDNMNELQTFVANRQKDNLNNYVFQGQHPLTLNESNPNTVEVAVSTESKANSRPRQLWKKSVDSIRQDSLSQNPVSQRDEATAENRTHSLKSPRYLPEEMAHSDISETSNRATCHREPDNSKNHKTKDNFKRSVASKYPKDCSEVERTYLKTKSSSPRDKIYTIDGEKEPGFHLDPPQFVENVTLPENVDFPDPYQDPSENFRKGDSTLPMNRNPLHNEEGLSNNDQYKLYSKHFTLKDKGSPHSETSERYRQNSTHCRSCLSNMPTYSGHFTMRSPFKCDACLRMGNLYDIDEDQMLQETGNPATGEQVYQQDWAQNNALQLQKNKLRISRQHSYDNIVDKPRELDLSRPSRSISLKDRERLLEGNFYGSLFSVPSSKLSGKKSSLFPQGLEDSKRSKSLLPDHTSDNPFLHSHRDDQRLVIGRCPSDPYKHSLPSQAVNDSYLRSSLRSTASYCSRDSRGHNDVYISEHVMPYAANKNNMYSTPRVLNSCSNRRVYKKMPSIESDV
ASSAY_NOTES: NMDA potentiation, two electrode voltage clamp (TEVC) of Xenopus oocytes expressing NMDA receptor
Type: cell-based
COND: 10 μM compound, 3 μM Glutamate and Glycine
Here the recorded activation at 10 µM is given for each entry.

>>> reported("C[C@H](CC[C@@](C)(O)C1CC1)[C@H]1CC[C@H]2[C@@H]3CC=C4C[C@@](C)(O)CC[C@]4(C)[C@H]3CC[C@]12C")
"50 to 100%"

Respond only with activation at 10 µM recorded for `C#C[C@@](C)(O)CC[C@@H](C)[C@H]1CC[C@H]2[C@@H]3CC=C4C[C@@](C)(O)CC[C@]4(C)[C@H]3CC[C@]12C` 10 to 50%

Respond only with activation at 10 µM recorded for C=C[C@@](C)(O)CC[C@@H](C)[C@H]1CC[C@H]2[C@@H]3CC=C4C[C@@](C)(O)CC[C@]4(C)[C@H]3CC[C@]12C [Compound 10-12B] 10 to 50%

Respond only with activation at 10 µM recorded for `C=C[C@@](C)(O)CC[C@@H](C)[C@H]1CC[C@H]2[C@@H]3CC[C@H]4C[C@@](C)(O)CC[C@]4(C)[C@H]3CC[C@]12C` 10 to 50%

Respond only with activation at 10 µM recorded for `CCC[C@@](C)(O)CC[C@@H](C)[C@H]1CC[C@H]2[C@@H]3CC=C4C[C@@](C)(O)CC[C@]4(C)[C@H]3CC[C@]12C` 10 to 50%
